The entries below are paired with their reported apparent KD of MS2 coat protein.
tested on: MS2 coat protein; assay: apparent KD of MS2 coat protein; designed switch direction (-1 OFF switch, 1 ON switch): 1; higher = weaker reporter binding; conditions: input ligand: FMN 200 uM
Readout Type: apparent KD of MS2 coat protein (nM)

>>> quantitative_result("AUAGUUGCCGAAGGAUAUGAUGAGGAUCACCCAUCAGAAGGUUGGCUAUUGGGUGGACAUGAGGAUCACCCGUGUUCUUUGGUA (Eterna round: R96, puzzle: Same State NG 1)")
50.3
>>> quantitative_result("ACCCGCGGGCCACAUGAGGAUCACCCAUGUGACCGGUGAUCCAAGGAUAUACGUGUCAUUGACGCGUAGAAGGUGGCCAAAACA [Ersooned] (Eterna round: R96, puzzle: Same State NG 3)")
49.2
>>> quantitative_result("UCUUGGUUUUUGCUCGUUUUUUGUGUUGAACAUGAGGAUCACCCAUGUAUUGUACAGUCCAAUUUGAUAAUGGUCCG [JMF 54] (Eterna round: R96, puzzle: Sensor for hsa-mir-208a)")
50.2
